tested on: A. pullulans (Ap); assay: microbe, parasite or virus in culture; type: cell-based, Aurobasidium pollulans; settings: 48 h
Where a SMILES comes first, the peptide text is derived from it. Bridges are numbered along the chain shown (N, C = ends). The star is where a group is joined. Decanoyl = CCCCCCCCCC(=O)*; Octanoyl = CCCCCCCC(=O)*
For each entry below, report its Antimicrobial Activity (MIC) Fungi Ap value.
Give a bare numeral; the unit µg/mL is implied.

# query: Antimicrobial Activity (MIC) Fungi Ap of entry CC(C)C[C@H](NC(=O)[C@H](CCCCN)NC(=O)[C@@H]1CSSC[C@H](N)C(=O)NCC(=O)N[C@@H](CCCCN)C(=O)N[C@@H](CCCCN)C(=O)N[C@@H](Cc2c[nH]c3ccccc23)C(=O)N[C@@H](Cc2c[nH]c3ccccc23)C(=O)NCC(=O)N[C@@H](Cc2c[nH]c3ccccc23)C(=O)N[C@@H](CCCCN)C(=O)N1)C(N)=O [cTurg-2] (H-CGKKWWGWKCKL-NH2; disulfide 1-10; N-terminus assumed) 32

# query: Antimicrobial Activity (MIC) Fungi Ap of entry CCCCCCCC(=O)N[C@H]1CSSC[C@@H](C(=O)N[C@@H](CCCNC(=N)N)C(=O)N[C@@H](CC(C)C)C(N)=O)NC(=O)[C@H](CCCNC(=N)N)NC(=O)[C@H](Cc2c[nH]c3ccccc23)NC(=O)[C@H](Cc2c[nH]c3ccccc23)NC(=O)CNC(=O)[C@H](Cc2c[nH]c3ccccc23)NC(=O)[C@H](CCCNC(=N)N)NC(=O)[C@H](CCCNC(=N)N)NC(=O)CNC1=O [Peptide C8-cTurg-6, C8- (CGRRWGWWRC)RL-NH2] (Octanoyl-CGRRWGWWRCRL-NH2; disulfide 1-10) 64

# query: Antimicrobial Activity (MIC) Fungi Ap of entry CCCCCCCC(=O)N[C@@H](CS)C(=O)NCC(=O)N[C@@H](CCCNC(=N)N)C(=O)N[C@@H](CCCNC(=N)N)C(=O)N[C@@H](Cc1c[nH]c2ccccc12)C(=O)NCC(=O)N[C@@H](Cc1c[nH]c2ccccc12)C(=O)N[C@@H](Cc1c[nH]c2ccccc12)C(=O)N[C@@H](CCCNC(=N)N)C(=O)N[C@@H](CS)C(=O)N[C@@H](CCCNC(=N)N)C(=O)N[C@@H](CC(C)C)C(N)=O [Peptide C8-Turg-6, C8- CGRRWGWWRC RL-NH2] (Octanoyl-CGRRWGWWRCRL-NH2) 128

# query: Antimicrobial Activity (MIC) Fungi Ap of entry CCCCCCCCCC(=O)N[C@H]1CSSC[C@@H](C(=O)N[C@@H](CCCNC(=N)N)C(=O)N[C@@H](CC(C)C)C(N)=O)NC(=O)[C@H](CCCNC(=N)N)NC(=O)[C@H](Cc2c[nH]c3ccccc23)NC(=O)[C@H](Cc2c[nH]c3ccccc23)NC(=O)CNC(=O)[C@H](Cc2c[nH]c3ccccc23)NC(=O)[C@H](CCCNC(=N)N)NC(=O)[C@H](CCCNC(=N)N)NC(=O)CNC1=O [Peptide C10-cTurg-6, C10- (CGRRWGWWRC)RL-NH2] (Decanoyl-CGRRWGWWRCRL-NH2; disulfide 1-10) 64

# query: Antimicrobial Activity (MIC) Fungi Ap of entry CC(C)C[C@H](NC(=O)[C@H](CCCNC(=N)N)NC(=O)[C@@H]1CSSC[C@H](N)C(=O)NCC(=O)N[C@@H](CCCNC(=N)N)C(=O)N[C@@H](CCCNC(=N)N)C(=O)N2CCC[C@H]2C(=O)N[C@@H](Cc2c[nH]c3ccccc23)C(=O)N[C@@H](Cc2c[nH]c3ccccc23)C(=O)N[C@@H](Cc2c[nH]c3ccccc23)C(=O)N[C@@H](CCCNC(=N)N)C(=O)N1)C(N)=O [cTurg-7] (H-CGRRPWWWRCRL-NH2; disulfide 1-10; N-terminus assumed) 32

* * *

Test system: P. aeruginosa (Pa, ATCC 27853)
Experiment: microbe, parasite or virus in culture
Assay type: cell-based, Pseudomonas aeruginosa
Conditions: ATCC 27853, 24 h
Description: All cyclic and linear peptides were screened for antibacterial activity against four Gram-positive strains: B. subtilis (Bs, ATCC 23857), C. glutamicum (Cg, ATCC 13032), S. aureus (Sa, ATCC 9144) and S. epidermidis RP62A (Se, ATCC 35984), and two Gram-negative strains: E. coli (Ec, ATCC 25922) and P. aeruginosa (Pa, ATCC 27853). The activity was assessed using a broth microdilution assay according to a modified CLSI-based method. […]
Where a SMILES comes first, the peptide text is derived from it. Bridges are numbered along the chain shown (N, C = ends). The star is where a group is joined. Lauroyl = CCCCCCCCCCCC(=O)*; Decanoyl = CCCCCCCCCC(=O)*
Measured Metric: Antimicrobial Activity (MIC) Gram − Pa (µg/mL)
Give a bare numeral; the unit µg/mL is implied.

# query: Antimicrobial Activity (MIC) Gram − Pa of entry CCCCCCCCCCCC(=O)N[C@H]1CSSC[C@@H](C(=O)N[C@@H](CCCNC(=N)N)C(=O)N[C@@H](CC(C)C)C(N)=O)NC(=O)[C@H](CCCNC(=N)N)NC(=O)[C@H](Cc2c[nH]c3ccccc23)NC(=O)[C@H](Cc2c[nH]c3ccccc23)NC(=O)CNC(=O)[C@H](Cc2c[nH]c3ccccc23)NC(=O)[C@H](CCCNC(=N)N)NC(=O)[C@H](CCCNC(=N)N)NC(=O)CNC1=O [Peptide C12-cTurg-6, C12- (CGRRWGWWRC)RL-NH2] (Lauroyl-CGRRWGWWRCRL-NH2; disulfide 1-10) 32

# query: Antimicrobial Activity (MIC) Gram − Pa of entry CCCCCCCCCCCC(=O)N[C@H]1CSSC[C@@H](C(=O)N[C@@H](CCCCN)C(=O)N[C@@H](CC(C)C)C(N)=O)NC(=O)[C@H](CCCCN)NC(=O)[C@H](Cc2c[nH]c3ccccc23)NC(=O)CNC(=O)[C@H](Cc2c[nH]c3ccccc23)NC(=O)[C@H](Cc2c[nH]c3ccccc23)NC(=O)[C@H](CCCCN)NC(=O)[C@H](CCCCN)NC(=O)CNC1=O [Peptide C12-cTurg-2, C12- (CGKKWWGWKC)KL-NH2] (Lauroyl-CGKKWWGWKCKL-NH2; disulfide 1-10) 16

# query: Antimicrobial Activity (MIC) Gram − Pa of entry CC(C)C[C@H](NC(=O)[C@H](CCCCN)NC(=O)[C@@H]1CSSC[C@H](N)C(=O)NCC(=O)N[C@@H](CCCCN)C(=O)N[C@@H](CCCCN)C(=O)N2CCC[C@H]2C(=O)N[C@@H](Cc2c[nH]c3ccccc23)C(=O)N[C@@H](Cc2c[nH]c3ccccc23)C(=O)N[C@@H](Cc2c[nH]c3ccccc23)C(=O)N[C@@H](CCCCN)C(=O)N1)C(N)=O [cTurg-4] (H-CGKKPWWWKCKL-NH2; disulfide 1-10; N-terminus assumed) 256

# query: Antimicrobial Activity (MIC) Gram − Pa of entry CCCCCCCCCC(=O)N[C@@H](CS)C(=O)NCC(=O)N[C@@H](CCCCN)C(=O)N[C@@H](CCCCN)C(=O)N[C@@H](Cc1c[nH]c2ccccc12)C(=O)N[C@@H](Cc1c[nH]c2ccccc12)C(=O)NCC(=O)N[C@@H](Cc1c[nH]c2ccccc12)C(=O)N[C@@H](CCCCN)C(=O)N[C@@H](CS)C(=O)N[C@@H](CCCCN)C(=O)N[C@@H](CC(C)C)C(N)=O [Peptide C10-Turg-2, C10- CGKKWWGWKC KL-NH2] (Decanoyl-CGKKWWGWKCKL-NH2) 16

* * *

Test system: P. aeruginosa (Pa, ATCC 27853)
Experiment: microbe, parasite or virus in culture
Format: cell-based, Pseudomonas aeruginosa
Conditions: ATCC 27853, 24 h
Experimental: All cyclic and linear peptides were screened for antibacterial activity against four Gram-positive strains: B. subtilis (Bs, ATCC 23857), C. glutamicum (Cg, ATCC 13032), S. aureus (Sa, ATCC 9144) and S. epidermidis RP62A (Se, ATCC 35984), and two Gram-negative strains: E. coli (Ec, ATCC 25922) and P. aeruginosa (Pa, ATCC 27853). The activity was assessed using a broth microdilution assay according to a modified CLSI-based method. […]
Where a SMILES comes first, the peptide text is derived from it. Bridges are numbered along the chain shown (N, C = ends). The star is where a group is joined. Decanoyl = CCCCCCCCCC(=O)*
Measured Metric: Antimicrobial Activity (MIC) Gram − Pa (µg/mL)
Give a bare numeral; the unit µg/mL is implied.

# query: Antimicrobial Activity (MIC) Gram − Pa of entry CCCCCCCCCC(=O)N[C@H]1CSSC[C@@H](C(=O)N[C@@H](CCCCN)C(=O)N[C@@H](CC(C)C)C(N)=O)NC(=O)[C@H](CCCCN)NC(=O)[C@H](Cc2c[nH]c3ccccc23)NC(=O)CNC(=O)[C@H](Cc2c[nH]c3ccccc23)NC(=O)[C@H](Cc2c[nH]c3ccccc23)NC(=O)[C@H](CCCCN)NC(=O)[C@H](CCCCN)NC(=O)CNC1=O [Peptide C10-cTurg-2, C10- (CGKKWWGWKC)KL-NH2] (Decanoyl-CGKKWWGWKCKL-NH2; disulfide 1-10) 8
